target: Hexose transporter 1 (Plasmodium falciparum) (UniProt O97467); experiment: ST_JUDE_LEISH: Cytotoxicity at 2uM final concentration against transgenic Leishmania Mexicana promastigotes LmPfHT that are glucose transport deficient and complemented with the Plasmodium falciparum hexose transporter. Activity is measured by DNA content using SYBR green in vitro; assay type: functional

{"compound": "CC(C)(C)C(=O)Nc1ccccc1Oc1ccc(Cl)cc1", "inhibition (%)": 4.21}
{"compound": "CCCCN(CCCC)CCNC(=O)c1ccc(-c2nc3cc(Cl)ccc3[nH]2)c(OCC)c1", "inhibition (%)": 2.11}
{"compound": "CN1CCN(CCCN(Cc2ccc(-c3cccc(CNCc4ccc5c(c4)OCO5)c3)cc2)C(=O)NC2CCCCC2)CC1", "inhibition (%)": 1.35}
{"compound": "COc1cccc(NC(=O)Nc2cc(C)nc3ccccc23)c1", "inhibition (%)": 3.94}
{"compound": "COc1c(C2=CCN(CCCCNC(=O)c3ccc(-c4ccc(C#N)cc4)cc3)CC2)c(C)cc2c1C(C)(C)CCC2(C)C", "inhibition (%)": 2.18}
{"compound": "Cc1cccc(CN2CCCN(Cc3ccc(C(=O)Nc4ccc(Cl)cc4)cc3)CC2)c1", "inhibition (%)": 11.3}
{"compound": "CN1CCCC1CCNCc1cccc(-c2cnc(N3CCCC(C)(C)C3)nc2)c1 (centres undefined)", "inhibition (%)": 103}
{"compound": "Oc1ccc2nc(N3CCNCC3)nc(NCCCc3ccccc3)c2c1", "inhibition (%)": -0.65}
{"compound": "CCN(CC)CCCCCNc1c2ccc(Cl)cc2nc2ccc(OC)cc12", "inhibition (%)": 1.26}
{"compound": "Cc1cccc(C(=O)NCCCN2CCC(NC(=O)/C=C/c3ccc(Cl)c(Cl)c3)CC2)c1", "inhibition (%)": 0.15}
{"compound": "O=C(NCC1CCN(Cc2cccc(F)c2)C1)c1cc(-c2cccc(C(F)(F)F)c2)cs1 (centres undefined)", "inhibition (%)": -2.49}
{"compound": "COc1ccc(CNCc2cccc(-c3cccc(-c4nc5cc(C(F)(F)F)ccc5[nH]4)c3)c2)cc1", "inhibition (%)": 4.65}
{"compound": "COc1cc2nc(N3CCC(CNC(=O)c4cccc5cccnc45)CC3)nc(N)c2cc1OC", "inhibition (%)": 4.14}
{"compound": "O=C(NCCCCCN1CCC(c2c[nH]c3ccccc23)CC1)Nc1cccc(Br)c1", "inhibition (%)": 7.56}
{"compound": "COc1ccc(CCNCCCCCCNCCc2ccccc2Cl)cc1OC", "inhibition (%)": 0.29}
{"compound": "COc1cccc(C(=O)Nc2ccc(Nc3nc(C)cc(N4CCCCC4)n3)cc2)c1OC", "inhibition (%)": 2.75}
{"compound": "FC(F)(F)c1ccc2nccc(NCc3ccccc3)c2c1", "inhibition (%)": 5.96}
{"compound": "CCCCOc1ccc(-n2c(Nc3ccccc3)nc3cc(S(N)(=O)=O)ccc32)cc1", "inhibition (%)": 8.64}
{"compound": "COc1cc(C)c(C(O)CNC(C)CCc2ccccc2)cc1C (centres undefined)", "inhibition (%)": 2.83}
{"compound": "OC1CCCN(Cc2ccc(-c3ccc(-c4nc5ccccc5[nH]4)cc3)cc2)C1 (centres undefined)", "inhibition (%)": 7.95}
{"compound": "CC(=O)N(Cc1ccc(CC(C)NCCc2cccc(Cl)c2)cc1)Cc1ccc(CC(C)NCCc2cccc(Cl)c2)cc1 (centres undefined)", "inhibition (%)": 72.7}
{"compound": "COc1cccc(C(=O)Nc2ccc(Nc3nc(C)cc(N(C)C)n3)cc2)c1", "inhibition (%)": 9.13}
{"compound": "COc1ccc2nc3cc(Cl)ccc3c(NCCNCC(O)CO)c2n1 (centres undefined)", "inhibition (%)": 6.76}
{"compound": "COc1ccc(CNC(=O)c2cc3c(=O)n4ccccc4nc3n(CCc3ccccc3)c2=N)cc1", "inhibition (%)": 12}
{"compound": "Cc1ccc(CNC(=O)[C@H](Cc2ccccc2)Nc2cc(C)nc(Nc3ccccc3)n2)cc1", "inhibition (%)": 6.84}
{"compound": "CS(=O)(=O)c1cccc(-c2ccc3oc(C(N)=O)c(NC(=O)c4cccs4)c3c2)c1", "inhibition (%)": 6.5}
{"compound": "O=C(O)CNCC(O)c1ccccc1 (centres undefined)", "inhibition (%)": -0.04}
{"compound": "Cc1nc(-c2ccc(-c3ccc(NC(=O)c4coc5ccc(N6CC(C)NC(C)C6)cc45)cc3)c(C)c2)no1 (centres undefined)", "inhibition (%)": 5.16}
{"compound": "CC(=O)Nc1ccc(CN(Cc2ccc(F)cc2)Cc2ccc3c(c2)OCO3)cc1", "inhibition (%)": 1.82}
{"compound": "Oc1ccc(Br)cc1-c1nc2ccc(Cl)cc2nc1-c1cc(Br)ccc1O", "inhibition (%)": 1.4}
{"compound": "O=C(NCc1ccc(C(=O)NCc2cccc3ccccc23)cc1)c1ccc(O)c(-c2ccc(Cl)c(Cl)c2)c1", "inhibition (%)": 2.17}
{"compound": "O=S(=O)(NCCN1CCCC1)c1ccc(-c2cccc(CNCc3ccc(F)cc3)c2)s1", "inhibition (%)": 2.44}
{"compound": "COc1cccc(O)c1CN1CCC2(CCCN(Cc3ccc(F)cc3)C2)C1 (centres undefined)", "inhibition (%)": 2.73}
{"compound": "Nc1c(-c2ccc(C(=O)NCCNCc3ccccc3)cc2)cnn1-c1ccc(C(F)(F)F)cc1", "inhibition (%)": 2.76}
{"compound": "CN(C)CC(=O)Nc1cccc(Nc2nccc(NCC(O)c3ccccc3)n2)c1 (centres undefined)", "inhibition (%)": 0.33}
{"compound": "N#Cc1nc2ccc(OCCN(Cc3ccccc3C(F)(F)F)c3ccc(C#N)c(C(F)(F)F)c3)cc2s1", "inhibition (%)": 6.39}
{"compound": "CC(=O)N/N=C/[C@H](CCc1ccccc1)NC(=O)[C@H](CC(C)C)NC(=O)c1ccc(OCCN2CCOCC2)cc1", "inhibition (%)": 6.88}
{"compound": "CN1CCN(CCCNCc2ccccc2-c2cccc(CNCc3ccc4c(c3)OCO4)c2)CC1", "inhibition (%)": -0.45}
{"compound": "CN(C)CCN(C)Cc1ccc(-c2ccc3c(Nc4ccc(Oc5ccccn5)cc4)ccnc3c2)o1", "inhibition (%)": -0.77}

---

target: Solute carrier family 2, facilitated glucose transporter member 1 (Homo sapiens) (UniProt P11166); assay: ST_JUDE_LEISH: Cytotoxicity at 2uM final concentration against transgenic Leishmania Mexicana promastigotes LmGLUT1 that are glucose transport deficient and complemented with the human glucose transporter GLUT1. Activity is measured by DNA content using SYBR green in vitro; type: functional
Sequence (P11166 whole entry): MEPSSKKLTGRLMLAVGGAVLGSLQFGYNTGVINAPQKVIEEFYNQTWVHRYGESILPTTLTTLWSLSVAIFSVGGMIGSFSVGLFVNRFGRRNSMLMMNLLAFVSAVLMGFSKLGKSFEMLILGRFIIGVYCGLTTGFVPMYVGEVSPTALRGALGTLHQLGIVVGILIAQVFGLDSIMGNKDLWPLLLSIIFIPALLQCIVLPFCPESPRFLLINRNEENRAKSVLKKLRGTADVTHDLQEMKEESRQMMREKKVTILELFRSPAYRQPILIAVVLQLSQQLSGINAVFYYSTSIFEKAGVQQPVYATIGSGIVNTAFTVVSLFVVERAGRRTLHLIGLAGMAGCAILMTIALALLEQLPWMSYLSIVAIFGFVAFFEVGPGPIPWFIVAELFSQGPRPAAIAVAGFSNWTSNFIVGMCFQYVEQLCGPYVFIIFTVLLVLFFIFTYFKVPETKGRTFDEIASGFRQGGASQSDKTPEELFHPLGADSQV
measurementKind: inhibition (%)

{"molecule": "O=C(Nc1ccc2ccccc2c1)N1CCC(NCc2cccc([N+](=O)[O-])c2)CC1", "assayResult": 2.09}
{"molecule": "O=C(Nc1cc(Cl)cc(Cl)c1)Nc1ccnc2ccccc12", "assayResult": 2.68}
{"molecule": "CN1CCC(Oc2ccc(CN3CC[C@H](NC(=O)c4ccc(Cl)c(Cl)c4)C3)cc2Cl)C1 (stereo not given in full)", "assayResult": 15.3}
{"molecule": "CCN(C1CCCCC1)S(=O)(=O)c1ccc(OC)c(N2CCN(C(=O)C(Cl)(Cl)Cl)CC2)c1", "assayResult": -1.48}
{"molecule": "CCCCN(Cc1cnccc1-c1ccc(Br)cc1)c1ccc(C(O)(C(F)(F)F)C(F)(F)F)cc1", "assayResult": 3.94}

---

biological target: Hexose transporter 1 (Plasmodium falciparum) (UniProt O97467); assay: ST_JUDE_LEISH: Cytotoxicity at 2uM final concentration against transgenic Leishmania Mexicana promastigotes LmPfHT that are glucose transport deficient and complemented with the Plasmodium falciparum hexose transporter. Activity is measured by DNA content using SYBR green in vitro; assay type: functional
inhibition reference
measurementKind: inhibition (%)

{"compound": "O=C(Nc1ccccc1)c1ccc(-c2cc3ccncc3cc2OC2CCNCC2)s1", "unitSymbol": "%", "assayResult": 3.86}
{"compound": "COc1ccc(NC(=O)c2csc(-c3cc(NC(=O)c4ccnc(N5CCCC5)c4)ccc3C)c2)cc1N1CCN(C)CC1", "unitSymbol": "%", "assayResult": 2.56}
{"compound": "CC(C)C1=C[C@H]2C[C@]3(C4OCCO4)[C@@H]4CC[C@@H](C)[C@H]4C[C@@]2(COCc2cccc(C#N)c2)[C@]13C(=O)OC(c1ccccc1)c1ccccc1", "unitSymbol": "%", "assayResult": 3.24}
{"compound": "Nc1nc(N)c2c(n1)CCC(c1ccccc1)C2 (stereo not given)", "unitSymbol": "%", "assayResult": 1.07}
{"compound": "CC(C)c1ccc(NC(=O)c2ccc(NCCCN(C)Cc3ccccc3)c([N+](=O)[O-])c2)cc1", "unitSymbol": "%", "assayResult": -1.98}
{"compound": "C[C@@H](Oc1cc(-n2cnc3ccc(NC(=O)NC(C)(C)C)cc32)sc1C(N)=O)c1ccccc1Cl", "unitSymbol": "%", "assayResult": 3.45}
{"compound": "CC(C)(C)c1cc(C(=O)N2CCN(c3ncccc3C(F)(F)F)CC2)n(Cc2ccccc2)n1", "unitSymbol": "%", "assayResult": 6.48}
{"compound": "CC(=O)Nc1ccc(C(=O)Nc2cccc(-c3cccc(-c4nc5cc(C(F)(F)F)ccc5[nH]4)c3)c2)cn1", "unitSymbol": "%", "assayResult": -2.32}
{"compound": "CC(C)CCn1c(Sc2ccc([N+](=O)[O-])cc2C(F)(F)F)nnc1-c1ccccc1Cl", "unitSymbol": "%", "assayResult": 1.95}
{"compound": "N#Cc1ccc(NC(=O)Nc2ccc(OC(F)(F)F)cc2)cc1", "unitSymbol": "%", "assayResult": 1.59}
{"compound": "Clc1cccc(C=NNc2nc(=Nc3ccccc3)[nH]c(=Nc3ccccc3)[nH]2)c1", "unitSymbol": "%", "assayResult": 5.13}
{"compound": "Cc1cc(NC2CCCC2)nc(Nc2ccccc2)n1", "unitSymbol": "%", "assayResult": 9.56}
{"compound": "CCCc1cc(OC)c(C[C@H]2c3cc(O)c(Cl)cc3CCN2C)cc1OC", "unitSymbol": "%", "assayResult": 1.13}
{"compound": "O=C(Nc1cc(F)cc(-c2cccnc2)c1)c1ccc2c(=O)n(Cc3ccccc3)cnc2c1", "unitSymbol": "%", "assayResult": 1.52}
{"compound": "Oc1ccc(Cl)cc1CN1CCC2(CCCN(CC3CCC3)C2)C1 (stereo not given)", "unitSymbol": "%", "assayResult": -0.63}
{"compound": "COc1ccc2[nH]c(C(=O)Nc3ccc4[nH]c(-c5ccccc5)nc4c3)cc2c1", "unitSymbol": "%", "assayResult": 2.1}
{"compound": "CN(CCS(C)(=O)=O)Cc1ccc(-c2ccc3ncnc(Nc4ccc(OCc5cccc(F)c5)c(Cl)c4)c3c2)o1", "unitSymbol": "%", "assayResult": 0.92}
{"compound": "CCOC(=O)c1nc(-c2ccc(-c3ccccc3)cc2)[nH]c1N", "unitSymbol": "%", "assayResult": 2.89}
{"compound": "C=CCn1c(Cc2ccccc2)nnc1Sc1ccc(C#N)c([N+](=O)[O-])c1", "unitSymbol": "%", "assayResult": 3.11}
{"compound": "O=C(Nc1cccc(Cl)c1Cl)Nc1ccnc2ccccc12", "unitSymbol": "%", "assayResult": 7.42}
